Quick reference for ELISA 1hr binding among some binders
Measured target: unlabeled human VEGF (ELISA coat) (human, UniProt P15692-4 27-191, limits assumed)
Sequence (P15692 other isoform, or with tags, fused parts or gaps limits assumed): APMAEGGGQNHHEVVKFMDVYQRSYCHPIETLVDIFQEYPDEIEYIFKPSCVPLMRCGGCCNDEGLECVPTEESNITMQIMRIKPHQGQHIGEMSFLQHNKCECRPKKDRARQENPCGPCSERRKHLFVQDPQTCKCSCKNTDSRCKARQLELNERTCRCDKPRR
Protocol text: ELISA 1 hr, EC50 WT/EC50 mutant
Protocol: To detect identified variants binding to antigen, ELISA plates (Nunc-Immuno MaxiSorp plates, Nalge Nunc, Rochester, N.Y.) were coated overnight at 4° C. with unlabeled human VEGF at 1 μg/mL in 0.2 M sodium carbonate-bicarbonate buffer (pH 9.4, Pierce, Rockford, Ill.). […] After 30 minutes of incubation, plates were washed and bound antibodies were detected by addition of TMB 1 Component HRP Microwell substrate (BioFx #TMBW-1000-01). […]
Only the number, expressed in fold, is required.

Binder	Unit symbol	Measured number
91 (antibody, human IgG1, V domains shown) VH: EVQLVESGGGLVQPGGSLRLSCAASGYTFTFYGMNWVRQAPGKGLEWVGWINTYTGEPTYAADFKRRFTFSLDTSKSTAYLQMNSLRAEDTAVYYCAKYPHYYGSSHWYFDVWGQGTLVTVSS VL: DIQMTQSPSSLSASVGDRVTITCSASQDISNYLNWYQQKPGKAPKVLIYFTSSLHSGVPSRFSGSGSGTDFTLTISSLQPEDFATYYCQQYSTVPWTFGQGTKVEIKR	fold	0.7

Read the next record carefully.
Record request: ELISA 1hr binding value, item S100a A (anti-VEGF IgG) (antibody, V domains shown, copies: 2 + 2) VH: EVQLVESGGGLVQPGGSLRLSCAASGYTFTNYGMNWVRQAPGKGLEWVGWINTYTGEPTYAADFKRRFTFSLDTSKSTAYLQMNSLRAEDTAVYYCAKYPHYYGASHWYFDVWGQGTLVTVSS VL: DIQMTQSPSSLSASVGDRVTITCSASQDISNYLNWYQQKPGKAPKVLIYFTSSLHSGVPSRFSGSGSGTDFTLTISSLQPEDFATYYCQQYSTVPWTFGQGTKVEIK
2.2
